tested on: SF-268; assay: Cytotoxicity against human SF268 cells after 72 hrs by Alamar blue assay; assay type: functional, cell-based; details: SF-268, 72 h
measure_name: IC50 (µM)
Unit µM implied. Number only.

molecule="COc1cccc2c1C(=O)c1c(O)c3c(c(O)c1C2=O)C[C@@](O)(C(=O)CO)C[C@@H]3O[C@H]1C[C@H](N)[C@H](O)[C@H](C)O1 [DOXORUBICIN]" measure_name=IC50 endpoint_value=0.6
molecule=C=C[C@]1(C)C=C2C(=O)[C@@]3(OC(C)=O)OC(=O)[C@@]4(CCCC(C)(C)[C@H]34)[C@@]2(O)CC1 measure_name=IC50 endpoint_value=4.9
molecule="C=C[C@]1(C)C=C2C(=O)[C@@]3(O)OC(=O)[C@@]4(CCCC(C)(C)[C@H]34)[C@@]2(O)CC1 [SPHAEROPSIDIN A]" measure_name=IC50 endpoint_value=2.1

Write down measured IC50 (SF-268) for this molecule. C=C[C@]1(C)C=C2C(=O)[C@@]3(O)OC(=O)[C@@]4(CCCC(C)(C)[C@H]34)[C@@]2(O)[C@H](O)C1 [SPHAEROPSIDIN D]
7.5
